Test system: MS2 coat protein
Assay: apparent KD of MS2 coat protein; designed switch direction (-1 OFF switch, 1 ON switch): 1; higher = weaker reporter binding
Conditions: input ligand: none
Quantity Measured: apparent KD of MS2 coat protein (nM)
Provide the reading as a plain figure in nM.

As a guide, the following entries are already answered.
GUAGCAUACCGAGGAUAUUCAUAUUAACAUGAGGAUCACCCAUGUAUUUAGGCCAAAAGGCCUUGGGAGAAGGCGGAAUGCUAC [Xeonanis - 20 Mod7] (Eterna round: R96, puzzle: Same State NG 2)	29.4
GGGAGAGACGGAGGAUAUGGAGGGAGAUAGAGACUAGAAGGUUGGACAUGAGAAUCGAACAUGAGGAUCACCCAUGUUGGGAGG [iteri-2] (Eterna round: R96, puzzle: Same State NG 1)	56.7

[ask] Which apparent KD of MS2 coat protein is listed for UUAAUUAUGUAAGGAUAUACAUGAGGAUUUCUCGUAGAAGGUACAUUACAUGAGGAUCACCCAUGUGGGUGUCAGAAGACGCCA [Mat - Same State NG 1 - JL mod - D12] (Eterna round: R96, puzzle: Same State NG 1) ?
[reply] 404

[ask] Entry CUGAGCAAUCAAGGAUAUCACGUCGAAUAGACGUGAGAAGGUGAUCAUAACAUGAGGAUCACCCAUGUAUUACAUGAAGCUCAG [SSNG1/1-A1] (Eterna round: R96, puzzle: Same State NG 1) please
[reply] 1280

###

Tested on: MS2 coat protein
Experiment: apparent KD of MS2 coat protein; designed switch direction (-1 OFF switch, 1 ON switch): -1; higher = weaker reporter binding
Settings: input ligand: FMN 200 uM
Measured apparent KD of MS2 coat protein by item
Value expressed in µM; do not type the unit.

Use the examples below as a reference point.
CGUUCUCACGUCAGGAUAUAGGACUUGCACGUGUGCUAGAAGGGACAUGAGGAUCACCCAUGUAAAUAAGAAAG [Quonbi] (Eterna round: R97, puzzle: Brourd's mod of Exclusion 4)	0.0375
CUAGCGAUUGUAGGAUAUCGGACUGUUUCAGUCUGAGAAGGACAUGAGGAUCACCCAUGUGAUGGAUCGUGAGAUCCACGCUAG [JL ENG1 3.80] (Eterna round: R96, puzzle: Exclusion NG 1)	0.195
GGUAGGUGUGACUUGGGUGACAUGAGGAUCACCCAUGUCACAAGCUUGUUGCUCGCCUUGUAAUUAACCCAUGUCAC [LRO Sensor-off var1-29 mod of Stov1-13-A1 by Brourd] (Eterna round: R97, puzzle: Sensor, turn-off variant 1)	0.0215
UAUUGUAGACAGGAUAUCUAUCGGGUAACCCGAAGAGAAGGGUCUACAUGAGGAUCACCCAUGUGGCCCGUUUU [EX6 B.29] (Eterna round: R97, puzzle: Exclusion 6)	0.042
GCACAUGAGGAUCACCCAUGUCAAUGGGAAUUCCUUCUUCAACAGGAUAUCCGAUGGAGAACGUCGGAGAAGGGUUCGCCAGUA [Eternabot solution 15] (Eterna round: R96, puzzle: Exclusion NG 3)	0.0314

# next sequence below
[ask] What measured apparent KD of MS2 coat protein goes with UACAAGCUUUUAAGAUCCCACAUGAGGAUCACCCAUGUGCUCGUCUUGUAACGUACUGUGACGAAAGUCACGGUACG [JL TOV1 3.23] (Eterna round: R97, puzzle: Sensor, turn-off variant 1) ?
[reply] 0.0267

meta.source: the supplement of paper PMC9170038
